molecular target: B-RAF G466V (Homo sapiens, UniProt P15056, G466V); construct: expressed in transfected cells; host or cells: T-Rex 293 cells (Invitrogen #R71007); test: Target protein degradation, assay D: T-Rex 293 cells, HA-BRAF_G466V, 384 well format; format: cell-based; conditions: Assay D, T-Rex 293 HA-BRAF_G466V cells, 24 hours, Examples 83-269
Sequence (P15056 whole entry G466V): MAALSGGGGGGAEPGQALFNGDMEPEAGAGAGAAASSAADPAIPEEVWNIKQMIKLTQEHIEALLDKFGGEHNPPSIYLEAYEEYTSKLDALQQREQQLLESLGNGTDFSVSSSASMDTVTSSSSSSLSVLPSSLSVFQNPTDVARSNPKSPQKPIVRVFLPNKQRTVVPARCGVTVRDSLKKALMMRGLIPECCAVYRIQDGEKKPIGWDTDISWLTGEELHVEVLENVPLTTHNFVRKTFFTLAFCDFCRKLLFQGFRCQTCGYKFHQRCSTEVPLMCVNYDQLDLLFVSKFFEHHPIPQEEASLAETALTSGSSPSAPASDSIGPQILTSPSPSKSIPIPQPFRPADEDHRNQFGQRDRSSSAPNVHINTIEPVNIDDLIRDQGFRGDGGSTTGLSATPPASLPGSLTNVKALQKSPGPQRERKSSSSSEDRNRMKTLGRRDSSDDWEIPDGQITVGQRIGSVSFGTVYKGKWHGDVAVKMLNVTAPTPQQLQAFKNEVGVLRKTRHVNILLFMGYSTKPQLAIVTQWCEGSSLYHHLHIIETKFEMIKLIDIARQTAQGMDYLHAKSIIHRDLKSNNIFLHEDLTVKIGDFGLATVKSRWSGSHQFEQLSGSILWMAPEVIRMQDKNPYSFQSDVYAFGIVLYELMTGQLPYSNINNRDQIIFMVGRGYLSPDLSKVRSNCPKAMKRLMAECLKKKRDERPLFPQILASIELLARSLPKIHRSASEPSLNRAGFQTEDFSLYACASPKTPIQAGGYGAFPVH
observable: DC50

1. N#Cc1c(NS(=O)(=O)N2CC[C@@H](F)C2)ccc(F)c1Oc1ccc2ncn(-c3cnc(N4CCN(c5ccc6c(c5)CN(C5CCC(=O)NC5=O)C6=O)CC4)nc3)c(=O)c2c1 (stereo partly drawn) [Example 127]
> 30 nM
2. N#Cc1c(NS(=O)(=O)N2CC[C@@H](F)C2)ccc(F)c1Oc1ccc2ncn(-c3cnc(N4CCC(CN5CCC6(CC5)CCN(c5ccc7c(c5)C(=O)N(C5CCC(=O)NC5=O)C7=O)CC6)CC4)nc3)c(=O)c2c1 (stereo partly drawn) [Example 129]
1 to 10 nM

Next:
# DC50 (molecule: CN(CC1CCN(c2ccc(-n3cnc4ccc(Oc5c(F)ccc(NS(=O)(=O)N6CC[C@@H](F)C6)c5C#N)cc4c3=O)cc2)CC1)[C@H]1C[C@@H](Oc2ccc3c(c2)CN([C@H]2CCC(=O)NC2=O)C3=O)C1 [Example 206] ) is 1 to 10 nM
